Molecular target: T1, GDF8 (UniProt O14793 267-375)
T1 construct: also called myostatin
T1 sequence (looked up): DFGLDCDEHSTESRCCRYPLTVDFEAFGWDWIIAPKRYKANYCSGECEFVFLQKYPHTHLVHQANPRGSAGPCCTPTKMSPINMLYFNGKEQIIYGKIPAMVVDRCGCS
Assay: SPR (Biacore); receptor-Fc captured by anti-hFc antibody, ligand injected
pKd: −log10 of the molar value.
reported_endpoint: pKd

- binder: "ActRIIB(R64K 20-134)-hFc (Fc fusion) GRGEAETRECIYYNANWELERTNQSGLERCEGEQDKRLHCYASWKNSSGTIELVKKGCWLDDFNCYDRQECVATEENPQVYFCCCEGNFCNERFTHLPEAGGPEVTYEPPPTAPTGGGTHTCPPCPAPELLGGPSVFLFPPKPKDTLMISRTPEVTCVVVDVSHEDPEVKFNWYVDGVEVHNAKTKPREEQYNSTYRVVSVLTVLHQDWLNGKEYKCKVSNKALPVPIEKTISKAKGQPREPQVYTLPPSREEMTKNQVSLTCLVKGFYPSDIAVEWESNGQPENNYKTTPPVLDSDGSFFLYSKLTVDKSRWQQGNVFSCSVMHEALHNHYTQKSLSLSPGK"
  endpoint_value: 9.68
- binder: "ActRIIB(K74A 20-134)-hFc (Fc fusion) GRGEAETRECIYYNANWELERTNQSGLERCEGEQDKRLHCYASWRNSSGTIELVAKGCWLDDFNCYDRQECVATEENPQVYFCCCEGNFCNERFTHLPEAGGPEVTYEPPPTAPTGGGTHTCPPCPAPELLGGPSVFLFPPKPKDTLMISRTPEVTCVVVDVSHEDPEVKFNWYVDGVEVHNAKTKPREEQYNSTYRVVSVLTVLHQDWLNGKEYKCKVSNKALPVPIEKTISKAKGQPREPQVYTLPPSREEMTKNQVSLTCLVKGFYPSDIAVEWESNGQPENNYKTTPPVLDSDGSFFLYSKLTVDKSRWQQGNVFSCSVMHEALHNHYTQKSLSLSPGK"
  endpoint_value: 10.14
